- experimental.target: MtMetAP1a (Mycobacterium tuberculosis)
- Construct: made in house; host or cells: E. coli BL21 (DE3)
- test: Coupled methionine-proline aminopeptidase assay (Met-Pro-pNA), IC50 determination
- Format: biochemical, M. tuberculosis
- reported.conditions: recombinant enzyme, 1.5 μM CoCl2, 600 μM Met-Pro-pNA; read-out: IC50 (μM) MtMetAP1a
Form field: IC50 (one value per entry).
Expressed in µM, but write only the number.

Previously resolved entries follow.
* COc1ccc(NC2=C(Cl)C(=O)c3ccccc3C2=O)cc1 | 15.9
* O=C1C(Cl)=C(Oc2ccc(F)cc2)C(=O)c2ccccc21 | 7.58
* O=C1C(Oc2ccc(F)cc2)=C(Oc2ccc(F)cc2)C(=O)c2ccccc21 | 4.93

Prompt line: Give the measured IC50 of Cc1cccc(NC2=C(Cl)C(=O)c3ccccc3C2=O)c1 .
Response line: 18.6

###

Form field: IC50 (one value per entry).
- experimental.target: MtMetAP1a (Mycobacterium tuberculosis, UniProt P9WK21)
- Construct: made in house; host or cells: E. coli BL21 (DE3)
- Sequence (P9WK21 whole entry): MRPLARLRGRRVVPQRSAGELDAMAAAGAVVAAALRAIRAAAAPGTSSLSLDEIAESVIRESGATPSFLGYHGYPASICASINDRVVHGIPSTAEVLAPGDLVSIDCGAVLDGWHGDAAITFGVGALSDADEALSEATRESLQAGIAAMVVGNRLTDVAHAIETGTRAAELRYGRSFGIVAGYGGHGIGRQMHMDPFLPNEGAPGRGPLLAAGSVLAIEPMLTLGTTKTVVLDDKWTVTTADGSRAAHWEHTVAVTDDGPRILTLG
- test: Coupled methionine-proline aminopeptidase assay (Met-Pro-pNA), IC50 determination
- Assay type: biochemical, M. tuberculosis
- reported.conditions: recombinant enzyme, 1.5 μM CoCl2, 600 μM Met-Pro-pNA; read-out: IC50 (μM) MtMetAP1a

Previously resolved entries follow.
- O=C1C=C(O)C(=O)c2ccccc21 [Compound 25]: > 50 µM
- CN1CCN(C2=C(Cl)C(=O)c3ccccc3C2=O)CC1 [Compound 7]: > 100 µM
- CC1=CC(=O)c2ccccc2C1=O [Compound 29]: > 50 µM

Please find the next molecule below.
Prompt line: Give the measured IC50 of COC(=O)c1ccc(NC2=C(Cl)C(=O)c3ccccc3C2=O)cc1 [Compound 14] .
Response line: > 30 µM
